For each entry below, report its protein stability index value.
B1: MLL5 (parent)
chain: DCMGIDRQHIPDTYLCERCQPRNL

Variants of: B1
Test: protein stability index of a GFP-peptide fusion (GPS, HEK-293T) (PSI 1-6); higher = more stable;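 further: lentivirally expressed fusions sorted by FACS into six bins by GFP to DsRed ratio, PSI derived from sequencing read proportions per bin multiplied by bin number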
Details: c terminus: a fixed tail appended

> print(dat)
                  sequence.content  recorded.result
1  DCMGIDRQHITDTYLCERCQPRNL [P11T]             3.08
2  DCMGIDRQHIPDTYLCPRCQPRNL [E17P]             2.96
3   DCMGIDRQSIPDTYLCERCQPRNL [H9S]             2.98

// switching to the query variant
Prompt: I have this variant here, DCYGIDRQHIPDTYLCERCQPRNL [M3Y] , and I need its recorded protein stability index.
Completion: 3.03

Data origin, for the record: the supplement of paper PMC10567573
